Documented PPARγ binding signal (fluorescence polarization, Fluormone PPAR Green displacement) across a set of compounds
experimental.system: PPARγ (Homo sapiens)
Construct: purchased Invitrogen Corporation, Carlsbad, Calif
experimental.details: Commercial PPARγ binding assay (Invitrogen, PPAR-LBD/Fluormone PPAR Green complex)
experimental.parameters: .1 μM compound; mean of three experiments
Experimental: The ability of several exemplary compounds of the present invention, shown in Table A, to bind to PPARγ was measured using a commercial binding assay (Invitrogen Corporation, Carlsbad, Calif.) that measures the test compounds ability to bind with PPAR-LBD/Fluormone PPAR Green complex. These assays were performed on three occasions with each assay using four separate wells (quadruplicate) at each concentration of tested compound. […]
recorded.endpoint: PPARγ binding signal (fluorescence polarization, Fluormone PPAR Green displacement)

compound	experimental.system	reported.result
CCc1ccc([C@H](O)COc2ccc(CC3SC(=O)NC3=O)cc2)nc1 (stereo partly shown) [Compound 3]	PPARγ (Homo sapiens)	226
CCc1ccc([C@@H](O)COc2ccc(CC3(C)SC(=O)NC3=O)cc2)nc1 (stereo partly shown) [Compound 8]	PPARγ (Homo sapiens)	237
CCc1ccc([C@H](O)COc2ccc(CC3(C)SC(=O)NC3=O)cc2)nc1 (stereo partly shown) [Compound 9]	PPARγ (Homo sapiens)	237
CCc1ccc(C(=O)COc2ccc(CC3(C)SC(=O)NC3=O)cc2)nc1 (stereo not shown) [Compound 10]	PPARγ (Homo sapiens)	245
CCc1ccc(CCOc2ccc(CC3(C)SC(=O)NC3=O)cc2)nc1 (single isomer, unassigned) [Compound 7]	PPARγ (Homo sapiens)	249
CCc1ccc(CCOc2ccc(CC3(C)SC(=O)NC3=O)cc2)nc1 (single isomer, unassigned) [Compound 4]	PPARγ (Homo sapiens)	236
CCc1ccc(CCOc2ccc(CC3(C)SC(=O)NC3=O)cc2)nc1 (single isomer, unassigned) [Compound 6]	PPARγ (Homo sapiens)	246
CCc1ccc(C(O)COc2ccc(CC3(C)SC(=O)NC3=O)cc2)nc1 (stereo not shown) [Compound 5]	PPARγ (Homo sapiens)	235
CCc1ccc(C(COc2ccc(CC3SC(=O)NC3=O)cc2)CC(=O)OC)nc1 (stereo not shown) [Compound 12]	PPARγ (Homo sapiens)	243
CCc1ccc(C(=CC(=O)OC)COc2ccc(CC3SC(=O)NC3=O)cc2)nc1 (stereo not shown) [Compound 11]	PPARγ (Homo sapiens)	230
CCc1ccc(C(=CCO)COc2ccc(CC3SC(=O)NC3=O)cc2)nc1 (stereo not shown) [Compound 13]	PPARγ (Homo sapiens)	244
CCc1ccc([C@@H](O)COc2ccc(CC3SC(=O)NC3=O)cc2)nc1 (stereo partly shown) [Compound 2]	PPARγ (Homo sapiens)	231
CCc1ccc(C(=O)COc2ccc(CC3SC(=O)NC3=O)cc2)nc1 (stereo not shown) [Compound 1]	PPARγ (Homo sapiens)	227

* * *

experimental.system: PPARγ (Homo sapiens)
Construct: purchased Invitrogen Corporation, Carlsbad, Calif
experimental.details: Commercial PPARγ binding assay (Invitrogen, PPAR-LBD/Fluormone PPAR Green complex)
experimental.parameters: .3 μM compound; mean of three experiments
recorded.endpoint: PPARγ binding signal (fluorescence polarization, Fluormone PPAR Green displacement)

compound	reported.result
CCc1ccc(C(=O)COc2ccc(CC3SC(=O)NC3=O)cc2)nc1 (centres unmarked) [Compound 1]	232
CCc1ccc([C@@H](O)COc2ccc(CC3SC(=O)NC3=O)cc2)nc1 (some centres unmarked) [Compound 2]	233
CCc1ccc(C(O)COc2ccc(CC3(C)SC(=O)NC3=O)cc2)nc1 (centres unmarked) [Compound 5]	230
CCc1ccc(CCOc2ccc(CC3(C)SC(=O)NC3=O)cc2)nc1 (single isomer, unassigned) [Compound 6]	246
CCc1ccc([C@H](O)COc2ccc(CC3SC(=O)NC3=O)cc2)nc1 (some centres unmarked) [Compound 3]	221

* * *

Tested on: Diabetic KKAy mice
experimental.details: Glucose, insulin and triglyceride in diabetic KKAy mice, 4 days oral dosing
Type: in vivo
experimental.parameters: 93 mg/kg orally for 4 days, fasted, blood approx. 18 hours after last dose, mean and SEM, N=6-12
recorded.endpoint: Glucose (mg/dL)

compound	recorded.endpoint	unit.label	reported.result
CCc1ccc([C@@H](O)COc2ccc(CC3(C)SC(=O)NC3=O)cc2)nc1 (stereo partly drawn)	Glucose	mg/dL	756
CCc1ccc(C(=CC(=O)OC)COc2ccc(CC3SC(=O)NC3=O)cc2)nc1 (stereo not drawn)	Glucose	mg/dL	662
CCc1ccc([C@H](O)COc2ccc(CC3(C)SC(=O)NC3=O)cc2)nc1 (stereo partly drawn)	Glucose	mg/dL	740

* * *

experimental.system: PPARγ (Homo sapiens, UniProt P37231)
Construct: purchased Invitrogen Corporation, Carlsbad, Calif
Sequence (P37231 238-503 limits assumed): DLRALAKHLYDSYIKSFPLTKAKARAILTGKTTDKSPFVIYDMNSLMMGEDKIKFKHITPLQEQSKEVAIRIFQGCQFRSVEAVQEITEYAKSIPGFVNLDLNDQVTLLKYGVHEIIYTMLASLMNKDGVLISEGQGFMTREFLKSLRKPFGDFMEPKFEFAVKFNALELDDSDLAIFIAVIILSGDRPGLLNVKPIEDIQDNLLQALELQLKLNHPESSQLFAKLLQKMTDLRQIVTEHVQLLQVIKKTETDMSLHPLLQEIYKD
experimental.details: Commercial PPARγ binding assay (Invitrogen, PPAR-LBD/Fluormone PPAR Green complex)
experimental.parameters: 50 μM compound; mean of three experiments
recorded.endpoint: PPARγ binding signal (fluorescence polarization, Fluormone PPAR Green displacement)

compound	reported.result
CCc1ccc([C@@H](O)COc2ccc(CC3(C)SC(=O)NC3=O)cc2)nc1 (stereo partly shown)	199
CCc1ccc(CCOc2ccc(CC3(C)SC(=O)NC3=O)cc2)nc1 (single isomer, unassigned) [Compound 4]	122
CCc1ccc([C@@H](O)COc2ccc(CC3SC(=O)NC3=O)cc2)nc1 (stereo partly shown)	162
CCc1ccc(C(COc2ccc(CC3SC(=O)NC3=O)cc2)CC(=O)OC)nc1 (stereo not shown)	80

* * *

experimental.system: PPARγ (Homo sapiens)
Construct: purchased Invitrogen Corporation, Carlsbad, Calif
experimental.details: Commercial PPARγ binding assay (Invitrogen, PPAR-LBD/Fluormone PPAR Green complex)
experimental.parameters: 1 μM compound; mean of three experiments
Documented PPARγ binding signal (fluorescence polarization, Fluormone PPAR Green displacement) across a set of molecules
recorded.endpoint: PPARγ binding signal (fluorescence polarization, Fluormone PPAR Green displacement)

molecule	reported.result
CCc1ccc(CCOc2ccc(CC3(C)SC(=O)NC3=O)cc2)nc1 (single isomer, unassigned) [Compound 6]	233
CCc1ccc(CCOc2ccc(CC3(C)SC(=O)NC3=O)cc2)nc1 (single isomer, unassigned) [Compound 4]	234
CCc1ccc(CCOc2ccc(CC3(C)SC(=O)NC3=O)cc2)nc1 (single isomer, unassigned) [Compound 7]	248
CCc1ccc([C@H](O)COc2ccc(CC3(C)SC(=O)NC3=O)cc2)nc1 (some centres unmarked)	239
CCc1ccc(C(=O)COc2ccc(CC3SC(=O)NC3=O)cc2)nc1 (centres unmarked)	223
CCc1ccc([C@@H](O)COc2ccc(CC3SC(=O)NC3=O)cc2)nc1 (some centres unmarked)	238
CCc1ccc(C(O)COc2ccc(CC3(C)SC(=O)NC3=O)cc2)nc1 (centres unmarked)	228
CCc1ccc([C@@H](O)COc2ccc(CC3(C)SC(=O)NC3=O)cc2)nc1 (some centres unmarked)	239

* * *

experimental.system: PPARγ (Homo sapiens)
Construct: purchased Invitrogen Corporation, Carlsbad, Calif
experimental.details: Commercial PPARγ binding assay (Invitrogen, PPAR-LBD/Fluormone PPAR Green complex)
experimental.parameters: 10 μM compound; mean of three experiments
Method: The ability of several exemplary compounds of the present invention, shown in Table A, to bind to PPARγ was measured using a commercial binding assay (Invitrogen Corporation, Carlsbad, Calif.) that measures the test compounds ability to bind with PPAR-LBD/Fluormone PPAR Green complex. These assays were performed on three occasions with each assay using four separate wells (quadruplicate) at each concentration of tested compound. […]
recorded.endpoint: PPARγ binding signal (fluorescence polarization, Fluormone PPAR Green displacement)

compound	experimental.system	reported.result
CCc1ccc(C(=O)COc2ccc(CC3SC(=O)NC3=O)cc2)nc1 (centres unmarked)	PPARγ (Homo sapiens)	207
CCc1ccc(C(=O)COc2ccc(CC3(C)SC(=O)NC3=O)cc2)nc1 (centres unmarked)	PPARγ (Homo sapiens)	219
CCc1ccc(CCOc2ccc(CC3(C)SC(=O)NC3=O)cc2)nc1 (single isomer, unassigned) [Compound 4]	PPARγ (Homo sapiens)	200
CCc1ccc(CCOc2ccc(CC3(C)SC(=O)NC3=O)cc2)nc1 (single isomer, unassigned) [Compound 6]	PPARγ (Homo sapiens)	198
CCc1ccc([C@@H](O)COc2ccc(CC3SC(=O)NC3=O)cc2)nc1 (some centres unmarked)	PPARγ (Homo sapiens)	223

* * *

experimental.system: PPARγ (Homo sapiens, UniProt P37231)
Construct: purchased Invitrogen Corporation, Carlsbad, Calif
experimental.details: Commercial PPARγ binding assay (Invitrogen, PPAR-LBD/Fluormone PPAR Green complex)
experimental.parameters: 100 μM compound; mean of three experiments
recorded.endpoint: PPARγ binding signal (fluorescence polarization, Fluormone PPAR Green displacement)

compound	experimental.system	reported.result
CCc1ccc(CCOc2ccc(CC3(C)SC(=O)NC3=O)cc2)nc1 (single isomer, unassigned) [Compound 4]	PPARγ (Homo sapiens, UniProt P37231)	91
CCc1ccc(C(COc2ccc(CC3SC(=O)NC3=O)cc2)CC(=O)OC)nc1 (stereo not shown) [Compound 12]	PPARγ (Homo sapiens, UniProt P37231)	85
CCc1ccc([C@@H](O)COc2ccc(CC3(C)SC(=O)NC3=O)cc2)nc1 (stereo partly shown) [Compound 8]	PPARγ (Homo sapiens, UniProt P37231)	186
CCc1ccc(C(O)COc2ccc(CC3(C)SC(=O)NC3=O)cc2)nc1 (stereo not shown) [Compound 5]	PPARγ (Homo sapiens, UniProt P37231)	106

All values here come from patent US9155729B2.
